Attribution: a melting point compilation (Tetko et al.)

Property: melting point

Worked examples, 6 molecules total:
CCc1cc2c(n1Cc1ccccc1)CCCC2=O    59 to 61 °C
CC(O)c1ccc2c(c1)NC(=O)CO2 (stereo not given)    137 to 139 °C
COc1ccc2c(CCl)cc(=O)oc2c1    189 to 191 °C
Nc1ccc2oc(CO)nc2c1    113 to 115 °C
COc1ccc(CNC(=O)C(C#N)=CN(C)C)cc1    128 to 130 °C
Cn1[nH]c2c(c1=N)CCC2    134 to 136 °C

Requested read-out: melting point. Entry: `O=C(O)c1ccccc1COc1ccccc1C(=O)O` 199 to 201 °C

Would you kindly share the measured melting point for `Cn1c(CO)nnc1-c1ccccc1` ? 184 to 186 °C

Suppose we examine the molecule `O=C(O)C1=COCCO1` ; what melting point value has been reported? 164 to 166 °C

Form field: reported melting point of `Nc1ccccc1C(=O)N1CCCCC1` 79 to 83 °C

I am curious: what melting point value has been reported for O=C(O)C1CC(O)CN1C(=O)Cc1ccccc1F (stereo not given) ? 201 to 203 °C

I am curious: what melting point value has been reported for `Clc1ncnc2c1CCCC2` ? 79 to 81 °C

Fill in the blank: the reported melting point of `N#CC=C(Cl)c1cccc(OC(F)F)c1` is ____. 45 to 47 °C

What does the record list as melting point for CCOC(=O)C(C#N)C1C(=O)N(C)c2ccccc21 (stereo not given) ? 119 to 121 °C

Suppose we examine the molecule CC(Cl)C(=O)Nc1ccc([N+](=O)[O-])cc1 (stereo not given) ; what melting point value has been reported? 138 to 140 °C
